# System: ATP;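 also: ATP exposure 15 min at 22 °C before imaging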
# assay-method-text: switch fluorescence ratio, 500 uM ATP over buffer (Cy3 cluster intensity, sum of 5 cycles each) (fold (ratio)); higher = stronger signal-on switching upon ATP binding; sequences stand for … in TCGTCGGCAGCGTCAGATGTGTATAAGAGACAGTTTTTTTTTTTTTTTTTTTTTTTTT…TC
# condition-summary: aptamer strand: ATP DNA aptamer (quencher-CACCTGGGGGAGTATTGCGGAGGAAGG + anchor), 100 nM annealed; ATP concentration: 500 uM
measurement-name: switch fluorescence ratio

sequence-record: GTGGGGGTGG
obs-value: 0.985
//
sequence-record: GATATGCTGT
obs-value: 0.985
//
sequence-record: GTGGGGGGCC
obs-value: 0.966
//
sequence-record: AGTAATTGGT
obs-value: 0.995
//
sequence-record: TGACGGCCAG
obs-value: 1.01
//
sequence-record: GCGTTTATAC
obs-value: 1.96
//
sequence-record: TATTCTAGTG
obs-value: 1.01
//
sequence-record: TCAGGACGGA
obs-value: 1.02
//
sequence-record: TTTATACAA
obs-value: 1.02
//
sequence-record: AGAGGGCTTT
obs-value: 0.988
//
sequence-record: TTAGTCTGAT
obs-value: 1
//
sequence-record: GTTTTTGGGC
obs-value: 0.985
//
sequence-record: ACGTTGGAGA
obs-value: 1.06
//
sequence-record: TCTTAGCGCG
obs-value: 1.07
//
sequence-record: GAGTTCAGTA
obs-value: 0.975
//
sequence-record: GGAGATATTT
obs-value: 1
//
sequence-record: TAATTTTGGC
obs-value: 0.99
//
sequence-record: GGTTGCGGGT
obs-value: 0.987
//
sequence-record: TGAGTTGGAC
obs-value: 1.08
//
sequence-record: CATTTGATCG
obs-value: 1.03
//
sequence-record: GTGCCCCAAG
obs-value: 1

Origin of the recorded values: the supplement of paper PMC10126150
